# Test system: Echinochloa oryzicola
# assay.details: Herbicidal activity against Echinochloa oryzicola at 2.5 g a.i/a treated at 2.5 leaf stage measured after 3 weeks
# Assay type: functional
Catalogue of Activity readings, one per entry.
Give your result in % as a bare value.

C=C1CN(C(C)(C)c2cc(Cl)cc(Cl)c2)C(=O)C1(C(=O)OC)c1ccccc1F (centres undefined)    95

Any idea what Activity was measured for COCC1=CN(C(C)(C)c2cc(Cl)cc(Cl)c2)C(=O)C1(C(=O)OC)c1ccccc1 (centres undefined) ?
65

Also, COC(=O)C1(c2ccccc2)C(=O)N(C(C)(C)c2cc(Cl)nc(Cl)c2)C=C1C (centres undefined) please.
90

* * *

Catalogue of Activity readings, one per entry.
# System: Echinochloa oryzicola
# assay.details: Post-emergence herbicide activity against Echinochloa oryzicola under greenhouse condition at 10 g a.i/a treated at one-leaf stage measured after 3 weeks
# Type: functional
Give your result in % as a bare value.

Answered examples (4):
COC(=O)C1(c2ccccc2)C(=O)N(C(C)(C)c2cnc3ccccc3c2)C=C1C (stereo not given)    100
CC1=CN(C(C)(C)c2cc(Cl)cc(Cl)c2)C(=O)C1(C(=O)OCc1ccccc1)c1ccccc1 (stereo not given)    100
COC(=O)C1(c2ccccc2)C(=O)N(C(C)(C)c2cc(Cl)cc(Cl)c2)C=C1C=O (stereo not given)    87.6
COC(=O)C1(c2ccccc2)C(=O)N(C(C)(C)c2ccc3ccccc3c2)C=C1C (stereo not given)    100

We next turn to a different compound, shown below.
Write down the reported Activity of COC(=O)C1(c2ccccc2)C(=O)N(C(C)(C)c2cc(Cl)nc(Cl)c2)C=C1C (stereo not given) , test system: Echinochloa oryzicola.
100

* * *

Catalogue of Activity readings, one per entry.
# System: Echinochloa oryzicola
# assay.details: Herbicidal activity against Echinochloa oryzicola at 2.5 g a.i/a treated at 1.5 leaf stage measured after 3 weeks
# Type: functional
Give your result in % as a bare value.

COC(=O)C1(c2ccccc2F)C(=O)N(C(C)(C)c2cc(Cl)cc(Cl)c2)C=C1C (stereo not given)    99
COCC1=CN(C(C)(C)c2cc(Cl)cc(Cl)c2)C(=O)C1(C(=O)OC)c1ccccc1 (stereo not given)    99
C=C1CN(C(C)(C)c2cc(Cl)cc(Cl)c2)C(=O)C1(C(=O)OC)c1ccccc1 (stereo not given)    99
COC(=O)C1(c2ccccc2)C(=O)N(C(C)(C)c2cccc(Cl)c2)C=C1C (stereo not given)    100

Any idea what Activity was measured for C=C1CN(C(C)(C)c2cc(Cl)cc(Cl)c2)C(=O)C1(C(=O)OC)c1ccccc1F (stereo not given) ?
99

* * *

Catalogue of Activity readings, one per entry.
# Tested on: Echinochloa oryzicola
# assay.details: Herbicidal activity against Echinochloa oryzicola at 2.5 g a.i/a treated at 2.5 leaf stage measured after 3 weeks
# Format: functional
Give your result in % as a bare value.

Any idea what Activity was measured for COC(=O)C1(c2ccccc2)C(=O)N(C(C)(C)c2cc(Cl)cc(Cl)c2)C=C1CO (stereo unspecified) ?
75

Also, COC(=O)C1(c2ccccc2F)C(=O)N(C(C)(C)c2cc(Cl)cc(Cl)c2)C=C1C (stereo unspecified) please.
90

Also, COC(=O)C1(c2ccccc2)C(=O)N(C(C)(C)c2cccc(Cl)c2)C=C1C (stereo unspecified) please.
90

Also, C=C1CN(C(C)(C)c2cc(Cl)cc(Cl)c2)C(=O)C1(C(=O)OC)c1ccccc1 (stereo unspecified) please.
99

Also, "CC1=C(c2ccccc2)C(=O)N(C(C)(C)c2cc(Cl)cc(Cl)c2)C1" please.
95

Also, COC(=O)C1(c2ccccc2)C(=O)N(C(C)(C)c2cc(Cl)cc(Cl)c2)C=C1C (stereo unspecified) please.
95

Data credit: ChEMBL document CHEMBL3044903
